target_under_test: T1, human amylin 3(a) receptor (human calcitonin receptor plus RAMP-3) (human, UniProt P30988 25-474; O60896 24-148, limits assumed)
T1 construct: whole, on cells; Whole cells in the luciferase assay (Assay II a); also called hAmylin-R; human amylin receptor
T1 sequence (looked up) 1: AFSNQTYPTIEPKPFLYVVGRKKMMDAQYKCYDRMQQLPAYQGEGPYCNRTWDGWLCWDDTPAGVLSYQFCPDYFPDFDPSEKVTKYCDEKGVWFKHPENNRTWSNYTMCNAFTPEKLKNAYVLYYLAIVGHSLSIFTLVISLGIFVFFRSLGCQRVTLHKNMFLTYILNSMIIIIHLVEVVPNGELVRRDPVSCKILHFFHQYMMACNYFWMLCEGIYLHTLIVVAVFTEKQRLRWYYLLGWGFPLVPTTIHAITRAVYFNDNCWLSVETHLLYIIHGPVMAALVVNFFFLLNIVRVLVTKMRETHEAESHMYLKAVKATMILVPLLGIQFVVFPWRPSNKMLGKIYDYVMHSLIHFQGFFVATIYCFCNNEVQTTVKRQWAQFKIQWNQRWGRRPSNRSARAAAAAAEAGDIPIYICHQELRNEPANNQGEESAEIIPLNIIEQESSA
T1 sequence (looked up) 2: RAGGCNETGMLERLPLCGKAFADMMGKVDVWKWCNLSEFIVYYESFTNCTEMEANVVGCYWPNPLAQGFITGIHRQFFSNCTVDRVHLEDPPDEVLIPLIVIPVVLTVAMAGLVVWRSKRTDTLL
test_protocol: SPA competition binding, displacement of 125I-rat amylin from membranes of Amylin 3(a)/CRE-luc BHK cells (Assay V)
Numbered stars: 1 amine (or outer) side, 2 acyl side, 3 side chain; on linkers, the order of the positions; unused ones are H or OH. Bridge positions count the residues as written; N and C are the ends. Side chains are listed from the residue outwards. Ends that are not written are not given here. * marks the point of attachment. C20 diacid = O=C(O)CCCCCCCCCCCCCCCCCCC(=O)*; γGlu = O=C(O)[C@H](CCC(=O)[*:2])N[*:1]
quantity_measured: IC50 (nM)

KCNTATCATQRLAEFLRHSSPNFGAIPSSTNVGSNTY (C20 diacid-gGlu on the alpha amino group of the N-terminal residue (position 1); disulfide bridge Cys2-Cys7; C-terminal amide, also called compound 9) [N^α1-[(4S)-4-carboxy-4-(19-carboxynonadecanoylamino)butanoyl]-[Glu14,Arg17,Pro21,Pro27]-h-amylin] = 0.143
K([γGlu-C20 diacid])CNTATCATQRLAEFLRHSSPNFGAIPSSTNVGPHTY-NH2 (disulfide 2-7) = 0.179
K([γGlu-γGlu-C20 diacid])CNTATCATQRLAEFLRHSSPNFGAIPSSTNVGSNTP-NH2 (disulfide 2-7 (inferred), also called compound 13) = 0.264

[A] K([γGlu-γGlu-C20 diacid])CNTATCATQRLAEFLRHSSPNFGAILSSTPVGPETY-NH2 (disulfide 2-7 (inferred))
[B] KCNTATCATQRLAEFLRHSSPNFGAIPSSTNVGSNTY (C20 diacid-gGlu-2xOEG on the alpha amino group of the N-terminal residue (position 1); disulfide bridge Cys2-Cys7; C-terminal amide, also called compound 19)
[C] K([γGlu-γGlu-C20 diacid])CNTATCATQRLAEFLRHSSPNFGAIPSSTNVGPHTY-NH2 (disulfide 2-7 (inferred))
[D] {C20 diacid-γGlu}-KCNTATCATQRLAEFLRHSSPNFGAILPSTNVGSETY-NH2 (disulfide 2-7, also called compound 33)
query: I would appreciate it if you could sort these 4 binders by IC50, starting from the smallest number. Labels, ranked as asked.
result: A, C, B, D
(A: 0.069 nM, C: 0.377 nM, B: 0.556 nM, D: 0.915 nM)

Data origin: patent US20140087995A1
